- System name: human ROR1 (Homo sapiens, UniProt Q01973)
- Construct: host or cells: HEK 293T cells, Tet-on system induced with doxycycline
- Sequence (Q01973 30-937): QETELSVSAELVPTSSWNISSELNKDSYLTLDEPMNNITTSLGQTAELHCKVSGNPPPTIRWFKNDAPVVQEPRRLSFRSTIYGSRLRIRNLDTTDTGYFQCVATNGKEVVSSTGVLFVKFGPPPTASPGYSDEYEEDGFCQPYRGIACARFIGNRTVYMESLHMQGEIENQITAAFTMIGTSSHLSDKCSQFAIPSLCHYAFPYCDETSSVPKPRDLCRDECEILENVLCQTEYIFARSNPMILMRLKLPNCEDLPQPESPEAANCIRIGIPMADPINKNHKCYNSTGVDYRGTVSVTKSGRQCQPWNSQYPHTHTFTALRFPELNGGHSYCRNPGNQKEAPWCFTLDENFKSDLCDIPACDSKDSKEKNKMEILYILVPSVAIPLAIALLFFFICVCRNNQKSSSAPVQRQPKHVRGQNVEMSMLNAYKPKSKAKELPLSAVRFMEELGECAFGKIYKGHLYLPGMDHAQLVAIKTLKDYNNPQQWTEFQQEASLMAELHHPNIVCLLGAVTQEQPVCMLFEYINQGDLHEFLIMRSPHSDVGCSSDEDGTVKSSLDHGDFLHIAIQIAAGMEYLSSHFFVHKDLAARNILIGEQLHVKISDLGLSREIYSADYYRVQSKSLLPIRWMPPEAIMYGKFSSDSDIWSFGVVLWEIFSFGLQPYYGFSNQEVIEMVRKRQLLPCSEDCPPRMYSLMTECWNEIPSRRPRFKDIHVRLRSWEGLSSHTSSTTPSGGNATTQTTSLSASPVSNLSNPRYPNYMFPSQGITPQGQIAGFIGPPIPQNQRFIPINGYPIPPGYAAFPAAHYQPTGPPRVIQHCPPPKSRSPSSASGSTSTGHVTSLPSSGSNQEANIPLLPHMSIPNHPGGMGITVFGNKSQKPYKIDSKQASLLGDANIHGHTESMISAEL
- Assay: ROR1 high content cell-based binding assay
- Condition set: read-out: ROR1 Binding 293T Human HC Cell Based Assay IC50
Positions of bridges follow the written chain, without caps; N, C: chain ends. Non-standard residues stand in square brackets, D forms with d. Residues, ends and D or L forms follow the SMILES beside them. NMeF = CN[C@@H](Cc1ccccc1)C(=O)O
Metric: IC50 (nM)
The figure you give is taken to be in nM; do not add the unit.

CC[C@H](C)[C@@H]1NC(=O)CSC[C@@H](C(=O)NCC(N)=O)NC(=O)[C@H](CC(C)C)NC(=O)[C@H](Cc2ccccc2)N(C)C(=O)[C@H](Cc2ccc(O)cc2)NC(=O)[C@H](Cc2c[nH]c3ccccc23)NC(=O)CNC(=O)[C@H](CO)NC(=O)[C@H](Cc2ccc(O)cc2)NC(=O)[C@H](C(C)C)NC(=O)[C@H](CC(C)C)NC(=O)[C@H](Cc2ccc(O)cc2)NC1=O [Example 1084] ({CH2CO}-IYLVYSGWY[NMeF]LCG-NH2; thioether N-12) = 227

Proceeding to the next compound to report its IC50.
-- ask IC50 for CC(C)C[C@@H]1NC(=O)[C@H](Cc2ccc(O)cc2)NC(=O)[C@H](Cc2ccccc2)NC(=O)CSC[C@@H](C(=O)NCC(N)=O)NC(=O)[C@@H](C)NC(=O)[C@H](Cc2ccccc2)N(C)C(=O)[C@H](Cc2ccc(O)cc2)NC(=O)[C@H](Cc2c[nH]c3ccccc23)NC(=O)CNC(=O)[C@H](CO)NC(=O)[C@H](Cc2ccc(O)cc2)NC(=O)[C@H](C(C)C)NC1=O [Example 1061] ({CH2CO}-FYLVYSGWY[NMeF][dA]CG-NH2; thioether N-12) ?
-- reply 645
